Taken from ChEMBL document CHEMBL2146434.

assay: Toxicity in human erythrocytes assessed as hemolysis at 0.3 mM after 30 mins by spectrophotometric analysis; type: cell-based, Erythrocyte; conditions: read-out: Activity

| substanceSmiles | readoutUnit | hemolysis at 0.5 h, 300 µM |
| --- | --- | --- |
| Cc1c2c3cc(NC(=O)CNC(=O)CN)ccc3nc-2n(C)c2ccccc12.Cl.Cl | % | 9.97 |
| Cc1c2c3cc(NC(=O)CNC(=O)[C@@H]4CCCN4)ccc3nc-2n(C)c2ccccc12.Cl.Cl | % | 9.97 |
| Cc1c2c3cc(NC(=O)CN)ccc3nc-2n(C)c2ccccc12.Cl.Cl | % | 42.5 |

* * *

test system: MCF7; assay: Cytotoxicity against human MCF7 cells after 72 hrs by SRB assay; assay type: functional, cell-based; settings: MCF7, 72 h
Counter-ions that a name gives are not always drawn.
Doc: threshold 1000 nM (exclusive). Items with IC50 beneath it return Fulfilled; others return Not fulfilled.

| molecule | categoryLabel |
| --- | --- |
| Cc1c2c3cc(NC(=O)CNC(=O)[C@@H]4CCCN4)ccc3nc-2n(C)c2ccccc12.Cl.Cl | Not fulfilled |
| Cc1c2c3cc(NC(=O)[C@@H]4CCCN4C(=O)CN)ccc3nc-2n(C)c2ccccc12.Cl.Cl | Not fulfilled |
| Cc1c2c3cc(NC(=O)CNC(=O)CN)ccc3nc-2n(C)c2ccccc12.Cl.Cl | Not fulfilled |
| Cc1c2c3cc(NC(=O)[C@H]4CCCN4)ccc3nc-2n(C)c2ccccc12.Cl.Cl | Fulfilled |
| COc1cccc2c1C(=O)c1c(O)c3c(c(O)c1C2=O)C[C@@](O)(C(=O)CO)C[C@@H]3O[C@H]1C[C@H](N)[C@H](O)[C@H](C)O1 [DOXORUBICIN HYDROCHLORIDE] | Fulfilled |
| Cc1c2c3cc(NC(=O)[C@@H]4CCCN4)ccc3nc-2n(C)c2ccccc12.Cl.Cl | Fulfilled |
| Cc1c2c3cc(NC(=O)[C@@H]4CCCN4C(=O)[C@@H]4CCCN4)ccc3nc-2n(C)c2ccccc12.Cl.Cl | Fulfilled |
| Cc1c2c3cc(NC(=O)CN)ccc3nc-2n(C)c2ccccc12.Cl.Cl | Not fulfilled |

* * *

system: Mus musculus; assay: Toxicity in C57BL/6 mouse xenografted with mouse LLC cells assessed as body weight loss at 15 mg/kg/day, sc administered on day 9 to day 13 of tumor implantation; type: organism-based; set-up: route subcutaneous; settings: in vivo

| substanceSmiles | Activity |
| --- | --- |
| Cc1c2c3cc(NC(=O)CN)ccc3nc-2n(C)c2ccccc12.Cl.Cl | <= 15% |
| Cc1c2c3cc(NC(=O)CNC(=O)CN)ccc3nc-2n(C)c2ccccc12.Cl.Cl | <= 15% |
| Cc1c2c3cc(NC(=O)[C@@H]4CCCN4)ccc3nc-2n(C)c2ccccc12.Cl.Cl | <= 15% |
| Cc1c2c3cc(NC(=O)CNC(=O)[C@@H]4CCCN4)ccc3nc-2n(C)c2ccccc12.Cl.Cl | <= 15% |

* * *

logD values by entry
assay: Octanol-water partition coefficient, log P of the compound in PBS buffer at pH 7.4 by spectrophotometric analysis; type: physicochemical

| substanceSmiles | logD |
| --- | --- |
| Cc1c2c3cc(NC(=O)CN)ccc3nc-2n(C)c2ccccc12.Cl.Cl | 0.6 |
| Cc1c2c3cc(NC(=O)CNC(=O)[C@@H]4CCCN4)ccc3nc-2n(C)c2ccccc12.Cl.Cl | -0.1 |
| Cc1c2c3cc(NC(=O)[C@@H]4CCCN4)ccc3nc-2n(C)c2ccccc12.Cl.Cl | 1.4 |
| Cc1c2c3cc(NC(=O)CNC(=O)CN)ccc3nc-2n(C)c2ccccc12.Cl.Cl | -0.2 |
